Data origin, for the record: patent US10161932B2

assay: Quantum yield measurement (Quantaurus-QY spectrometer); format: physicochemical; conditions: Table 1; 10 mM HEPES pH 7.3
Measured quantity: ϕ
Lab note: jot the number down without any unit.

(Q) GET /values?readout=ϕ&item= CC1(C)CN(c2ccc3c(-c4ccccc4C(=O)[O-])c4ccc(=[N+]5CC(C)(C)C5)cc-4oc3c2)C1
(A) 0.83

(Q) Could you do the same for CC1(C)C2=CC(=[N+]3CCC3)C=CC2=C(c2ccccc2C(=O)[O-])c2ccc(N3CCC3)cc21 , please?
(A) 0.67

(Q) Could you do the same for CN(C)C1CN(c2ccc3c(-c4ccccc4C(=O)[O-])c4ccc(N5CC(N(C)C)C5)cc4[o+]c3c2)C1 , please?
(A) 0.57

(Q) Could you do the same for C[Si]1(C)C2=CC(=[N+]3CC(F)C3)C=CC2=C(c2ccccc2C(=O)[O-])c2ccc(N3CC(F)C3)cc21 (stereo not shown) , please?
(A) 0.56

(Q) Could you do the same for O=C([O-])c1ccccc1-c1c2ccc(=[N+]3CC(F)(F)C3)cc-2oc2cc(N3CC(F)(F)C3)ccc12 , please?
(A) 0.91

(Q) Could you do the same for N#CC1CN(c2ccc3c(-c4ccccc4C(=O)[O-])c4ccc(=[N+]5CC(C#N)C5)cc-4oc3c2)C1 (stereo not shown) , please?
(A) 0.89

(Q) Could you do the same for O=C([O-])c1ccccc1-c1c2ccc(=[N+]3CC(C(=O)O)C3)cc-2oc2cc(N3CC(C(=O)O)C3)ccc12 (stereo not shown) , please?
(A) 0.87

(Q) Could you do the same for O=C(O)CC1CN(c2ccc3c(-c4ccccc4C(=O)[O-])c4ccc(=[N+]5CC(CC(=O)O)C5)cc-4oc3c2)C1 (stereo not shown) , please?
(A) 0.87

(Q) Could you do the same for C[Si]1(C)C2=CC(=[N+]3CCC3)C=CC2=C(c2ccccc2C(=O)[O-])c2ccc(N3CCC3)cc21 , please?
(A) 0.54

(Q) Could you do the same for CC1(C)C2=CC(=[N+]3CC(F)(F)C3)C=CC2=C(c2ccccc2C(=O)[O-])c2ccc(N3CC(F)(F)C3)cc21 , please?
(A) 0.78

(Q) Could you do the same for COC1CN(c2ccc3c(-c4ccccc4C(=O)[O-])c4ccc(=[N+]5CC(OC)C5)cc-4oc3c2)C1 (stereo not shown) , please?
(A) 0.88

(Q) Could you do the same for O=C([O-])c1ccccc1-c1c2ccc(=[N+]3CC(F)C3)cc-2oc2cc(N3CC(F)C3)ccc12 (stereo not shown) , please?
(A) 0.87

(Q) Could you do the same for O=C([O-])c1ccccc1-c1c2ccc(=[N+]3CCC3)cc-2oc2cc(N3CCC3)ccc12 , please?
(A) 0.88
